molecular target: HLA-A*1101 (purified HLA class I molecule) (human); test: competition with a 125I-labelled probe peptide for purified HLA-A*1101
Documented binding affinity ratio (IC50 of standard peptide / IC50 of test peptide) across a set of binders
Give a plain numeric answer without units written out.

Some solved entries appear below for comparison.
INSERT INTO assay_data (binder, assay_value) VALUES
  ('QSQDNNGNRH (modifications not checked) [… (Pf SSP2 436, 10-mer)]', 0.0002),
  ('SLLSTNLPY (modifications not checked) [… (Pf SSP2 120, 9-mer)]', 0.0046),
  ('RSRKREILH (modifications not checked) [… (Pf SSP2 262, 9-mer)]', 0.0002);

Okay, now this binder:
// recorded binding affinity ratio (IC50 of standard peptide / IC50 of test peptide) for YADSAWENVK (modifications not checked) [… (Pf SSP2 215, 10-mer)] : 0.0002
